# system.name: Fibroblast growth factor receptor 3 (Homo sapiens)
# conditions: Compound concentration 20.0 uM, Protein concentration 2.0 uM, Result type QC Liability
# Description: Thermal Shift Assay. Domain: start/stop: P449-E759
measure.name: ΔTm (°C)
Form entry: value (°C) — number only.

# annotated cases, reported ΔTm shown
{"molecule": "CCOC(=O)C1Cc2ccccc2CN1C(=O)c1ccc(SC)s1 (stereo not given)", "ΔTm [°C]": 0.41}
{"molecule": "Cn1ncc(NC(=O)c2nc(-c3c(F)cccc3F)sc2N)c1N1CC[C@@H](N)[C@H](F)CC1", "ΔTm [°C]": 0.81}
{"molecule": "CN1CCN(c2ccc(-n3cc(-c4ccncc4OCC4CCNCC4)cn3)cc2)CC1", "ΔTm [°C]": 1.33}

Task: Respond only with ΔTm recorded for `Cc1nnc2n1-c1sc3c(c1C(c1ccccc1Cl)=NC2)C[C@H](C(=O)N1CCOCC1)C3`
Output: 0.59

Task: Respond only with ΔTm recorded for `O=C(Nc1ccc(-n2nc(-c3cccnc3)cc2C(F)(F)F)cn1)c1ccc(-c2ccccc2)c(F)c1`
Output: 0.42

---

# system.name: Fibroblast growth factor receptor 3 (Homo sapiens)
# conditions: Compound concentration 20.0 uM, Protein concentration 2.0 uM, Result type QC Liability
Mark Yes for reported ΔTm of 0.6 °C or greater; mark No for anything smaller.

# example entries with known answers
{"molecule": "CNCc1ccc(-c2cc(-c3nc(-c4ccc(S(=O)(=O)C(C)C)cc4)cnc3N)on2)cc1", "system.name": "Fibroblast growth factor receptor 3 (Homo sapiens)", "group.label": "No"}
{"molecule": "Cc1ncc(C(=O)Nc2cc(C(C)(C)C)on2)cc1-n1cc(-c2cnn(C)c2C)nn1", "system.name": "Fibroblast growth factor receptor 3 (Homo sapiens)", "group.label": "Yes"}
{"molecule": "Nc1ncc2c(n1)-c1c([nH]c3ccc(C4CC4)cc13)CCCC2", "system.name": "Fibroblast growth factor receptor 3 (Homo sapiens)", "group.label": "Yes"}
{"molecule": "CC[C@H](Nc1c(C#N)c(-c2ccc(-c3cccc(C)c3F)cc2)nc2cnccc12)C(=O)O", "system.name": "Fibroblast growth factor receptor 3 (Homo sapiens)", "group.label": "No"}
{"molecule": "CCN1CCN(Cc2ccc(C(=O)Nc3ccc(C)c(Oc4ccc5c(c4)CC(=O)N5)c3)cc2C(F)(F)F)CC1", "system.name": "Fibroblast growth factor receptor 3 (Homo sapiens)", "group.label": "Yes"}

Task: Answer whether ΔTm of `Fc1ccc(Cl)cc1-c1nc(Nc2ccncc2)c2nccnc2n1` is greater than or equal to 0.6 °C.
Output: No

Task: Answer whether ΔTm of `CN(C)CCCN1c2ccccc2Sc2ccc(Cl)cc21` is greater than or equal to 0.6 °C.
Output: Yes

Task: Answer whether ΔTm of `C[C@@H]1Cc2c([nH]c3ccccc23)[C@@H](c2c(F)cc(/C=C/C(=O)O)cc2F)N1CC(C)(C)F` is greater than or equal to 0.6 °C.
Output: No

Task: Answer whether ΔTm of `C=CC(=O)Nc1cccc(C(=O)Nc2ccc(Nc3cc(-c4c(-c5ccc(F)cc5)nc(SC)n4C)ccn3)cc2)c1` is greater than or equal to 0.6 °C.
Output: No

---

# system.name: Fibroblast growth factor receptor 3 (Homo sapiens) (UniProt P22607)
# Sequence (P22607 23-806 limits assumed): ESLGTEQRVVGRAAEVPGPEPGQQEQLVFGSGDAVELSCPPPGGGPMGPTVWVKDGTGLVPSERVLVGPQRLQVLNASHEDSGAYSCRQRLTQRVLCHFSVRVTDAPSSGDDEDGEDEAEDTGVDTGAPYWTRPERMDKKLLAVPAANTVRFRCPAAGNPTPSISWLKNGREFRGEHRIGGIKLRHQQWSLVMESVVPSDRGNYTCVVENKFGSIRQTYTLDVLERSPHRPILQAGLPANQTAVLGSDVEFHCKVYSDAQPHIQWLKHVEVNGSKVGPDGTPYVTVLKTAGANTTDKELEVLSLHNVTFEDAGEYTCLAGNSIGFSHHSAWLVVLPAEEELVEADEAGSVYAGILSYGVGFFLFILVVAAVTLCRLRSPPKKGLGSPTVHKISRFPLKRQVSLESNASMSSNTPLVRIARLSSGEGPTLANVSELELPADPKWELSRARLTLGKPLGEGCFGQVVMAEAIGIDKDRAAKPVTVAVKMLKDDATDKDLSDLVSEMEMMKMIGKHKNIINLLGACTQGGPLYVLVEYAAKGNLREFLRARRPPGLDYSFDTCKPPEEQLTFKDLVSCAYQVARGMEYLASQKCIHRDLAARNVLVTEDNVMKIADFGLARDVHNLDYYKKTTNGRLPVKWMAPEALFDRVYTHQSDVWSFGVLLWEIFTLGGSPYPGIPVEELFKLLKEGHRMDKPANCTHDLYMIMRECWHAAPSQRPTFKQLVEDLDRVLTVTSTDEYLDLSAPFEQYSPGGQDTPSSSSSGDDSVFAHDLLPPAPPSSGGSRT
# conditions: Compound concentration 20.0 uM, Protein concentration 2.0 uM, Result type QC Liability
measure.name: ΔTm (°C)
Form entry: value (°C) — number only.

# annotated cases, reported ΔTm shown
{"molecule": "Cc1cc2c(cc(C(=O)N[C@H](CO)c3ccc(S(=O)(=O)CC(=O)O)cc3)n2C)c(Cl)c1Cl", "system.name": "Fibroblast growth factor receptor 3 (Homo sapiens) (UniProt P22607)", "units.of.measure": "°C", "ΔTm": 0.16}
{"molecule": "CCCCCCCN(CCc1ccc(SC(C)(C)C(=O)O)cc1)C(=O)Nc1ccc(F)cc1F", "system.name": "Fibroblast growth factor receptor 3 (Homo sapiens) (UniProt P22607)", "units.of.measure": "°C", "ΔTm": 0.87}
{"molecule": "CCC(C)(C)CC[C@H](NC(=O)N1CCOCC1)C(=O)NC1(C#N)CCN(C)CC1", "system.name": "Fibroblast growth factor receptor 3 (Homo sapiens) (UniProt P22607)", "units.of.measure": "°C", "ΔTm": 0.71}
{"molecule": "COCc1c(-c2cc3cc(C)cc(OC)c3s2)c2c(N)ncnn2c1CN[C@@H]1CCNC1=O", "system.name": "Fibroblast growth factor receptor 3 (Homo sapiens) (UniProt P22607)", "units.of.measure": "°C", "ΔTm": 6.99}

Now look at this entry.
Task: Respond only with ΔTm recorded for `COc1cc(C(=O)NCCOCCOCCOCC(=O)N[C@H](C(=O)N2C[C@H](O)C[C@H]2C(=O)NCc2ccc(-c3scnc3C)cc2)C(C)(C)C)ccc1Nc1ncc(C(F)(F)F)c(Oc2cccc3c2C(=O)CC3)n1`
Output: 1.52

---

# system.name: Peregrin (Homo sapiens) (UniProt P55201)
# Sequence (whole entry): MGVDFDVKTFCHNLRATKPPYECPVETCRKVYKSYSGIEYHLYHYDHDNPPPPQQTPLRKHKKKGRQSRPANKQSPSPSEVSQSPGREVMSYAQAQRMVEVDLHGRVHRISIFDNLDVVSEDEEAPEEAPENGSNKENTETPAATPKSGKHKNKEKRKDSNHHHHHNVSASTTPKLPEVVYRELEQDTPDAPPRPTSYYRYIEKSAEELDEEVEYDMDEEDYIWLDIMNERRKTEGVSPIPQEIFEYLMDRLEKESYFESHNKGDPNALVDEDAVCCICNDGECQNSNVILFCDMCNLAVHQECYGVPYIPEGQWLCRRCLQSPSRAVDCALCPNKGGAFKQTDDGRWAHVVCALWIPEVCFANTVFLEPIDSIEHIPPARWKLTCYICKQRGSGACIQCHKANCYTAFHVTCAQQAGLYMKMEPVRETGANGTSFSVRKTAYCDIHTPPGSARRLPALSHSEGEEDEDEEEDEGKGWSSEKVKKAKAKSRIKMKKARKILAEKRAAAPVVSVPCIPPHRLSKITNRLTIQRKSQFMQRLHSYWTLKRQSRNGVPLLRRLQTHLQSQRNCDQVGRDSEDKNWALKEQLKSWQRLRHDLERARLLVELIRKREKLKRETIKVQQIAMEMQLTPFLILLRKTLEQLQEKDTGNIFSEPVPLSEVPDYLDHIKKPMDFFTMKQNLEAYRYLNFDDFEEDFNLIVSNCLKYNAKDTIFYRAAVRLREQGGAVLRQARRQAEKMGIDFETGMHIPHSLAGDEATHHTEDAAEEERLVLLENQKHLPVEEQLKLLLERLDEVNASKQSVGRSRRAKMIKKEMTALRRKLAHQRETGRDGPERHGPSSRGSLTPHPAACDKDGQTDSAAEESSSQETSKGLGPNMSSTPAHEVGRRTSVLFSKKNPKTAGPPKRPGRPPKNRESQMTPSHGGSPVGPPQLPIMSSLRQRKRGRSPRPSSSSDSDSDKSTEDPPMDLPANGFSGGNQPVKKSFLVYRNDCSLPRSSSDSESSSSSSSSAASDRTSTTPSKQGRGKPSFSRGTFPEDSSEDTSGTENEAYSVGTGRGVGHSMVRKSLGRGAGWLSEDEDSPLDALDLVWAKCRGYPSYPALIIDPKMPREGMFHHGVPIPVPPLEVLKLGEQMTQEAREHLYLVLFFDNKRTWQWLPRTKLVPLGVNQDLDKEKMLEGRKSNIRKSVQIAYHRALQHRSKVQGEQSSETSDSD
# conditions: Compound concentration 20.0 uM, Protein concentration 2.0 uM, Result type QC Liability
Listed molecules paired with reported ΔTm
Form entry: value (°C) — number only.

Task: Respond only with ΔTm recorded for `CN1CCN(C(=O)c2ccc3cc2OCCOCCNc2ccn4ncc-3c4n2)CC1`
Output: -1.15

Task: Respond only with ΔTm recorded for `CNc1[nH]c(Nc2ccc(C(=O)N3CCOCC3)cc2OC)nc2ncc(Cl)c1-2`
Output: -1.81

Task: Respond only with ΔTm recorded for `Cc1cc(=O)n(C)c2cc(N3C(=O)CC[C@H](NS(=O)(=O)CC(C)C)[C@H]3c3ccc(Cl)cc3)ccc12`
Output: -0.8

Task: Respond only with ΔTm recorded for `COc1cc(N2CCN(C)CC2)ccc1Nc1ncc2c(n1)N(C)c1ccccc1C(=O)N2CC(F)(F)F`
Output: -2.22

Task: Respond only with ΔTm recorded for `N[C@@H]1CCCN(c2c(/C=C3\SC(=O)NC3=O)cccc2-c2ccccc2)C1`
Output: -2.04

---

# system.name: Peregrin (Homo sapiens) (UniProt P55201)
# conditions: Compound concentration 20.0 uM, Protein concentration 2.0 uM, Result type QC Liability
measure.name: ΔTm (°C)
Form entry: value (°C) — number only.

Task: Respond only with ΔTm recorded for `CC[C@H](Nc1c(C#N)c(-c2ccc(-c3cccc(C)c3F)cc2)nc2cnccc12)C(=O)O`
Output: -1.54

Task: Respond only with ΔTm recorded for `COc1ccc(-c2cc3c(C)nc(N)nc3n([C@H]3CC[C@H](OCCO)CC3)c2=O)cn1`
Output: 0.08

Task: Respond only with ΔTm recorded for `CC(C)(O)[C@H]1CC[C@H](Nc2ccc3ncc(-c4cccc(C(F)(F)F)c4)n3n2)CC1`
Output: 3.48

Task: Respond only with ΔTm recorded for `Cn1cc(-n2cnc3c(NCc4nc5cc(Cl)c(Cl)cc5[nH]4)nc(N4CCOCC4)nc32)cn1`
Output: -0.07

Task: Respond only with ΔTm recorded for `N#Cc1c(SCc2csc(-c3ccc(Cl)cc3)n2)nc(N2CCCC2)c(C#N)c1-c1ccc(OCCO)cc1`
Output: -3.79
